test system: HCT-116 colon cancer xenografts; test: Tumor growth inhibition of HCT-116 colon cancer xenografts in tumor-bearing nude mice (tumor volume, TGI %, RTV, T/C %); type: in vivo, Balb/c Nude mice; details: Day 13; G3-G9 groups; single IP dose; Mean±SEM
Marks after values point to notes of the source that are not given here.

- compound: "CC(C)(C)OC(=O)Nc1ccn([C@@H]2O[C@H](COC(=O)Cn3cnc([N+](=O)[O-])c3)[C@@H](O)C2(F)F)c(=O)n1 [Compound G9]"
  Tumor volume, Day 13: "314.26 ± 60.92** mm^3"
- compound: "O=C(Nc1ccn([C@@H]2O[C@H](CO)[C@@H](O)C2(F)F)c(=O)n1)OCc1ccccc1 [Compound G4]"
  Tumor volume, Day 13: "86.22 ± 24.86** mm^3"
- compound: "CC(C)(C)OC(=O)Nc1ccn([C@@H]2O[C@H](CO)[C@@H](O)C2(F)F)c(=O)n1 [Compound G3]"
  Tumor volume, Day 13: "531.90 ± 203.98* mm^3"
- compound: "O=C(Nc1nc(=O)n([C@@H]2O[C@H](CO)[C@@H](O)C2(F)F)cc1Br)OCc1ccccc1 [Compound G7]"
  Tumor volume, Day 13: "222.86 ± 25.56** mm^3"
- compound: "CCCCOC(=O)Nc1nc(=O)n([C@@H]2O[C@H](CO)[C@@H](O)C2(F)F)cc1Br [Compound G6]"
  Tumor volume, Day 13: "381.70 ± 0.00 mm^3"
- compound: "O=C(Nc1ccn([C@@H]2O[C@H](CO)[C@@H](O)C2(F)F)c(=O)n1)OCc1ccc([N+](=O)[O-])cc1 [Compound G5]"
  Tumor volume, Day 13: "75.90 ± 28.06** mm^3"

---

conditions: Day 23; G10-G16 groups; single IP 400 mg/kg; Mean±SEM
Item-by-item account of Weight change rate, Day 23

- compound: "CCCCOC(=O)Nc1nc(=O)n([C@@H]2O[C@H](COC(=O)Cn3cnc([N+](=O)[O-])c3)C(O)C2(F)F)cc1I (stereo partly drawn)"
  resultUnits: "%"
  Weight change rate, Day 23: 4.37
- compound: "CCCCOC(=O)Nc1nc(=O)n(C2OC(COC(=O)COc3nc(Cl)c(Cl)cc3Cl)C(O)C2(F)F)cc1-c1cn(Cc2ccccc2)nn1 (stereo not drawn)"
  resultUnits: "%"
  Weight change rate, Day 23: 8.06
- compound: "O=C(COc1nc(Cl)c(Cl)cc1Cl)OC[C@H]1O[C@@H](n2cc(Br)c(NC(=O)OCc3ccccc3)nc2=O)C(F)(F)C1O (stereo partly drawn)"
  resultUnits: "%"
  Weight change rate, Day 23: "−2.41"
- compound: "CCCCOC(=O)Nc1nc(=O)n(C2OC(COC(=O)COc3nc(Cl)c(Cl)cc3Cl)C(O)C2(F)F)cc1Br (stereo not drawn)"
  resultUnits: "%"
  Weight change rate, Day 23: 7.14
- compound: "O=C(COc1nc(Cl)c(Cl)cc1Cl)OCC1OC(n2cc(-c3cn(Cc4ccccc4)nn3)c(NC(=O)OCc3ccc([N+](=O)[O-])cc3)nc2=O)C(F)(F)C1O (stereo not drawn)"
  resultUnits: "%"
  Weight change rate, Day 23: 5.17
- compound: "CCCCOC(=O)Nc1nc(=O)n(C2OC(COC(=O)COc3nc(Cl)c(Cl)cc3Cl)C(O)C2(F)F)cc1I (stereo not drawn)"
  resultUnits: "%"
  Weight change rate, Day 23: "−1.07"

---

Item-by-item account of Weight of mice, Day 0
settings: Day 0; G3-G9 groups; single IP dose; Mean±SEM
propertyLabel: Weight of mice, Day 0 (g)

- compound: "CC(C)(C)OC(=O)Nc1ccn([C@@H]2O[C@H](COC(=O)Cn3cnc([N+](=O)[O-])c3)[C@@H](O)C2(F)F)c(=O)n1 [Compound G9]"
  propertyLabel: "Weight of mice, Day 0"
  resultUnits: "g"
  measuredNumber: 20.55
- compound: "O=C(Nc1ccn([C@@H]2O[C@H](CO)[C@@H](O)C2(F)F)c(=O)n1)OCc1ccc([N+](=O)[O-])cc1 [Compound G5]"
  propertyLabel: "Weight of mice, Day 0"
  resultUnits: "g"
  measuredNumber: 21.03
- compound: "CC(C)(C)OC(=O)Nc1ccn([C@@H]2O[C@H](CO)[C@@H](O)C2(F)F)c(=O)n1 [Compound G3]"
  propertyLabel: "Weight of mice, Day 0"
  resultUnits: "g"
  measuredNumber: 20.47
- compound: "CCCCOC(=O)Nc1nc(=O)n([C@@H]2O[C@H](CO)[C@@H](O)C2(F)F)cc1Br [Compound G6]"
  propertyLabel: "Weight of mice, Day 0"
  resultUnits: "g"
  measuredNumber: 21.47
- compound: "O=C(Nc1nc(=O)n([C@@H]2O[C@H](CO)[C@@H](O)C2(F)F)cc1Br)OCc1ccccc1 [Compound G7]"
  propertyLabel: "Weight of mice, Day 0"
  resultUnits: "g"
  measuredNumber: 21.63
- compound: "O=C(Nc1ccn([C@@H]2O[C@H](CO)[C@@H](O)C2(F)F)c(=O)n1)OCc1ccccc1 [Compound G4]"
  propertyLabel: "Weight of mice, Day 0"
  resultUnits: "g"
  measuredNumber: 20.20

---

Item-by-item account of Weight of mice, Day 21
settings: Day 21; G10-G16 groups; single IP 400 mg/kg; Mean±SEM

- compound: "CCCCOC(=O)Nc1nc(=O)n([C@@H]2O[C@H](COC(=O)Cn3cnc([N+](=O)[O-])c3)C(O)C2(F)F)cc1I (stereo partly drawn)"
  Weight of mice, Day 21, g: 20.78
- compound: "CCCCOC(=O)Nc1nc(=O)n(C2OC(COC(=O)COc3nc(Cl)c(Cl)cc3Cl)C(O)C2(F)F)cc1I (stereo not drawn)"
  Weight of mice, Day 21, g: 20.35
- compound: "O=C(COc1nc(Cl)c(Cl)cc1Cl)OCC1OC(n2cc(-c3cn(Cc4ccccc4)nn3)c(NC(=O)OCc3ccc([N+](=O)[O-])cc3)nc2=O)C(F)(F)C1O (stereo not drawn)"
  Weight of mice, Day 21, g: 21.30

---

test system: HCT-116 colon cancer xenografts; assay: Tumor growth inhibition of HCT-116 colon cancer xenografts in tumor-bearing nude mice (tumor volume, TGI %, RTV, T/C %); format: in vivo, Balb/c Nude mice; settings: Day 4; G3-G9 groups; single IP dose
Item-by-item account of Day 4 (TGI %)
propertyLabel: Day 4 (TGI %)

- cpdSmiles: "CC(C)(C)OC(=O)Nc1ccn([C@@H]2O[C@H](CO)[C@@H](O)C2(F)F)c(=O)n1"
  result: "57.58%"
- cpdSmiles: "CC(C)(C)OC(=O)Nc1ccn([C@@H]2O[C@H](COC(=O)Cn3cnc([N+](=O)[O-])c3)[C@@H](O)C2(F)F)c(=O)n1"
  result: "80.77%"
- cpdSmiles: "CCCCOC(=O)Nc1nc(=O)n([C@@H]2O[C@H](CO)[C@@H](O)C2(F)F)cc1Br"
  result: "82.09%"
- cpdSmiles: "O=C(Nc1nc(=O)n([C@@H]2O[C@H](CO)[C@@H](O)C2(F)F)cc1Br)OCc1ccccc1"
  result: "53.12%"
- cpdSmiles: "O=C(Nc1ccn([C@@H]2O[C@H](CO)[C@@H](O)C2(F)F)c(=O)n1)OCc1ccc([N+](=O)[O-])cc1"
  result: "77.08%"
- cpdSmiles: "O=C(Nc1ccn([C@@H]2O[C@H](CO)[C@@H](O)C2(F)F)c(=O)n1)OCc1ccccc1"
  result: "83.29%"

---

conditions: Day 0; G10-G16 groups; single IP 400 mg/kg; Mean±SEM
propertyLabel: Weight of mice, Day 0

- molecule: "O=C(COc1nc(Cl)c(Cl)cc1Cl)OC[C@H]1O[C@@H](n2cc(Br)c(NC(=O)OCc3ccccc3)nc2=O)C(F)(F)C1O (stereo partly drawn)"
  result: "19.90 ± 0.17 g"
- molecule: "CCCCOC(=O)Nc1nc(=O)n(C2OC(COC(=O)COc3nc(Cl)c(Cl)cc3Cl)C(O)C2(F)F)cc1I (stereo not drawn)"
  result: "20.48 ± 0.27 g"
- molecule: "O=C(COc1nc(Cl)c(Cl)cc1Cl)OCC1OC(n2cc(-c3cn(Cc4ccccc4)nn3)c(NC(=O)OCc3ccc([N+](=O)[O-])cc3)nc2=O)C(F)(F)C1O (stereo not drawn)"
  result: "20.43 ± 0.27 g"

---

test system: HCT-116 colon cancer xenografts; assay: Tumor growth inhibition of HCT-116 colon cancer xenografts in tumor-bearing nude mice (tumor volume, TGI %, RTV, T/C %); assay type: in vivo, Balb/c Nude mice; details: Day 25; G10-G16 groups; single IP 400 mg/kg; Mean±SEM
propertyLabel: Day 25 (RTV)

- compound: "CCCCOC(=O)Nc1nc(=O)n(C2OC(COC(=O)COc3nc(Cl)c(Cl)cc3Cl)C(O)C2(F)F)cc1Br (stereo not drawn)"
  measuredNumber: 43.89
- compound: "CCCCOC(=O)Nc1nc(=O)n([C@@H]2O[C@H](COC(=O)Cn3cnc([N+](=O)[O-])c3)C(O)C2(F)F)cc1I (stereo partly drawn)"
  measuredNumber: 36.50
- compound: "O=C(COc1nc(Cl)c(Cl)cc1Cl)OC[C@H]1O[C@@H](n2cc(Br)c(NC(=O)OCc3ccccc3)nc2=O)C(F)(F)C1O (stereo partly drawn)"
  measuredNumber: 31.95
